# System: LPS-induced IL-8 release in d-U937 cells
# Procedure Summary: LPS-induced IL-8 release in d-U937 cells
# Assay type: cell-based
# Test Parameters: Homo sapiens, dU937, read-out: LPS Induced Release of Cytokine in d-937 Cells IL-8 IC50
pIC50: −log10 of the molar value.
Tick met if pIC50 is 8 or greater. Tick not met if pIC50 is less than 8.

> print(dat)
                                  smiles.str                       experimental.system  class.name
 1  Cc1ccc(-n2nc(C(C)(C)C)cc2NC(=O)Nc2ccc(Oc3ccnc(Nc4ccc5c(c4)OCO5)n3)c3ccccc23)cc1  LPS-induced IL-8 release in d-U937 cells         met
 2  CC(C)c1cc(NC(=O)Nc2ccc(Oc3ccnc(Nc4ccc5[nH]ncc5c4)n3)c3ccccc23)n(-c2ccc(OCCN3CCOCC3)cc2)n1  LPS-induced IL-8 release in d-U937 cells         met
 3  CC(C)(C)c1cc(NC(=O)Nc2ccc(Oc3cc(Nc4ccc5[nH]ncc5c4)ncn3)c3ccccc23)n(-c2ccc(OCCN3CCOCC3)cc2)n1  LPS-induced IL-8 release in d-U937 cells         met
 4  COCCOc1cccc(-n2nc(C(C)(C)C)cc2NC(=O)Nc2ccc(Oc3ccnc(Nc4cc(C)c5[nH]ncc5c4)c3)c3ccccc23)c1  LPS-induced IL-8 release in d-U937 cells         met
 5  Cc1ccc(-n2nc(C(C)(C)C)cc2NC(=O)Nc2ccc(Oc3ccnc(Nc4ccc5c(c4)NC(=O)C5)n3)c3ccccc23)cc1  LPS-induced IL-8 release in d-U937 cells         met
 6  Cc1ccc(-n2nc(C(C)(C)C)cc2NC(=O)Nc2ccc(Oc3ccnc(Nc4ccc5onc(N)c5c4)n3)c3ccccc23)cc1  LPS-induced IL-8 release in d-U937 cells         met
 7  Cc1cc(Nc2nccc(Oc3ccc(NC(=O)Nc4cc(C(C)(C)C)nn4-c4ccc(=O)n(CCO)c4)c4ccccc34)n2)cc2cn[nH]c12  LPS-induced IL-8 release in d-U937 cells         met
 8  CC(C)c1cc(NC(=O)Nc2ccc(Oc3cc(Nc4ccc5[nH]ncc5c4)ncn3)c3ccccc23)n(-c2ccc(=O)n(CCO)c2)n1  LPS-induced IL-8 release in d-U937 cells     not met
 9  CC(C)(C)c1cc(NC(=O)Nc2ccc(Oc3ccnc(Nc4ccc5ncsc5c4)n3)c3ccccc23)n(-c2ccc(OCCN3CCOCC3)cc2)n1  LPS-induced IL-8 release in d-U937 cells         met
10  Cc1ccc(-n2nc(C(C)(C)C)cc2NC(=O)Nc2ccc(Oc3ccnc(Nc4ccc5ncsc5c4)n3)c3ccccc23)cc1  LPS-induced IL-8 release in d-U937 cells     not met
11  Cc1ccc(-n2nc(C(C)(C)C)cc2NC(=O)Nc2ccc(Oc3ccnc(Nc4ccc5scnc5c4)n3)c3ccccc23)cc1  LPS-induced IL-8 release in d-U937 cells         met
12  CC(C)(C)c1cc(NC(=O)Nc2ccc(Oc3cc(Nc4ccc5[nH]ncc5c4)ncn3)c3ccccc23)n(-c2ccc(=O)n(CCO)c2)n1  LPS-induced IL-8 release in d-U937 cells     not met
13  Cc1ccc(-n2nc(C(C)(C)C)cc2NC(=O)Nc2ccc(Oc3ccnc(Nc4ccc5[nH]nnc5c4)n3)c3ccccc23)cc1  LPS-induced IL-8 release in d-U937 cells         met
14  CC(C)(C)c1cc(NC(=O)Nc2ccc(Oc3ccnc(Nc4ccc5c(c4)NC(=O)C5(C)C)n3)c3ccccc23)n(-c2ccc(OCCN3CCOCC3)cc2)n1  LPS-induced IL-8 release in d-U937 cells     not met
